Test: chemical genetic growth profiling, strain panel (AID 1159580);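 note: tested at 20 µM; growth read once vehicle control cultures reached saturation at 30 °C; 1 = growth at the plate median or of vehicle wells; lower values mean less growth of the strain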
Conditions: S. cerevisiae deletion strains, growth OD, locus YOR231W, strain MKK1, stronger effect = lower value
The campaign covered roughly 5,500 compounds. About 2,000 (36%) were called active. Roughly 18% stayed inconclusive and do not appear here. This is one part of the list.
// values below are reported normalized growth
Please reply with the value in numeric form only.

>>> obs_value("C=C[C@H]1CN2CC[C@H]1C[C@@H]2[C@@H](OC(=O)OCC)c1ccnc2ccc(OC)cc12")
1.03
>>> obs_value("CCOC(=O)N/N=C\\c1cc(Cl)cc(Cl)c1O")
0.69
>>> obs_value("Cc1cc(Cl)ccc1NNC(=O)c1sccc1Br")
0.824

Field: next molecule
INPUT: Would you mind telling me what normalized growth value was observed for Cc1cc(Oc2ccc(C(F)(F)F)cc2NS(C)(=O)=O)cc(C)c1Cl ?
OUTPUT: 0.902
